# GI50 annotations
Test system: T-47D breast
test name: NCI tumour cell line growth inhibition, 48 h

Illustrative cases are given below, each with its answer.
compound	GI50
CCCn1c(=O)c2[nH]c(-c3ccc(OCc4nc5ccc(F)cc5[nH]4)cc3)nc2n(CCC)c1=O	4.4 µM
COc1ccc2[nH]cc(-c3cc(N)n4nc(-c5c[nH]c6ccccc56)cc4n3)c2c1	3.05 µM
CCCS(=O)(=O)c1oc(-c2ccc(F)cc2)nc1S(=O)(=O)c1ccc(F)cc1	1.83 µM

Kindly consider the entry below.
Record summary for CN1C(=O)N(C)C2SC(N/N=C/c3cccs3)=NC21 (centres undefined) : reported GI50 = 4.56 µM
